B1: HDV Ribozyme (parent)
chain: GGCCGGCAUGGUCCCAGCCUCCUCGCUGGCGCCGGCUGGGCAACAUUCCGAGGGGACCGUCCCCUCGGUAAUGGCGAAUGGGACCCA

Variants of: B1
Assay: self-cleavage, relative activity (ratio to wild type); higher = more cleavage; co-transcriptional
Grouping by measured self-cleavage is done with the following cut points: range 1 = under 0.2, range 2 = from 0.2 up to 0.6, range 3 = 0.6 and over

- SEQUENCE INPUT: "GGGCGGCAUGGUCCCAGCCUCCUCCCUGGCGCCGGCUGGGCAACAUUCCGAGGGGACCGUCCCCUCGGUAAUGGCGAAUGGGACCCA [C3G G25C]"
  CLASS ASSIGNMENT: "range 1"
- SEQUENCE INPUT: "GGCCGGCAUGGUCCCAGCCUCCUCGCUAGCGCCGGCUGGGCAACAUUCCGAGGGGACCGUCCCCUCGGUAAUGGCGACUGGGACCCA [G28A A78C]"
  CLASS ASSIGNMENT: "range 1"

(Q) Which class does GGCCGGCAUGGUCACAGCCUCCUCGCUGGCGCCGGCUGGGCAACAUUCCGAGGGGACCGUCCCCUCGUUAAUGGCGAAUGGGACCCA [C14A G68U] fall in?
(A) range 2

(Q) Which class does GGCCGGCAUGGUCCCAGCCUCCUCGCUGGCGCCGGCUGGGCAAAAUUCCGAGGGGACCGUCCCCUCCGUAAUGGCGAAUGGGACCCA [C44A G67C] fall in?
(A) range 3

(Q) Which class does GGCCGGCAGGGUCCCAGCCUCCUCGCUGGCGCCGGCUGGGCAACAUUCCGAGGGCACCGUCCCCUCGGUAAUGGCGAAUGGGACCCA [U9G G55C] fall in?
(A) range 3
